B1: FAM46C (parent)
chain: VRSRLEEAGIKVHDVRLNGSAAGH

Variants of: B1
Assay: protein stability index of a GFP-peptide fusion (GPS, HEK-293T) (PSI 1-6); higher = more stable;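 further: lentivirally expressed fusions sorted by FACS into six bins by GFP to DsRed ratio, PSI derived from sequencing read proportions per bin multiplied by bin number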
Conditions: c terminus: a fixed tail appended
Please mark T if the recorded protein stability index is equal to or greater than 3, and F if it falls below.

Asked: I'd appreciate it if you could say whether K11E has protein stability index at least equal to 3.
Given back: F

Asked: I'd appreciate it if you could say whether I10S has protein stability index at least equal to 3.
Given back: T

Asked: I'd appreciate it if you could say whether V15C has protein stability index at least equal to 3.
Given back: F

Asked: I'd appreciate it if you could say whether S3Y has protein stability index at least equal to 3.
Given back: F

Asked: I'd appreciate it if you could say whether G19V has protein stability index at least equal to 3.
Given back: F

Asked: I'd appreciate it if you could say whether R2H has protein stability index at least equal to 3.
Given back: F

Asked: I'd appreciate it if you could say whether S20K has protein stability index at least equal to 3.
Given back: F

Asked: I'd appreciate it if you could say whether H24I has protein stability index at least equal to 3.
Given back: F

Asked: I'd appreciate it if you could say whether R4K has protein stability index at least equal to 3.
Given back: F

Asked: I'd appreciate it if you could say whether H13P has protein stability index at least equal to 3.
Given back: T

Asked: I'd appreciate it if you could say whether L17V has protein stability index at least equal to 3.
Given back: F

Asked: I'd appreciate it if you could say whether G9W has protein stability index at least equal to 3.
Given back: F

Asked: I'd appreciate it if you could say whether V15I has protein stability index at least equal to 3.
Given back: F

Asked: I'd appreciate it if you could say whether R16V has protein stability index at least equal to 3.
Given back: F

Asked: I'd appreciate it if you could say whether N18Y has protein stability index at least equal to 3.
Given back: F

Asked: I'd appreciate it if you could say whether V15S has protein stability index at least equal to 3.
Given back: T

Asked: I'd appreciate it if you could say whether D14S has protein stability index at least equal to 3.
Given back: F

Asked: I'd appreciate it if you could say whether R16K has protein stability index at least equal to 3.
Given back: F

Asked: I'd appreciate it if you could say whether R2M has protein stability index at least equal to 3.
Given back: F

Asked: I'd appreciate it if you could say whether A22M has protein stability index at least equal to 3.
Given back: F

Asked: I'd appreciate it if you could say whether G23R has protein stability index at least equal to 3.
Given back: F

Asked: I'd appreciate it if you could say whether V12S has protein stability index at least equal to 3.
Given back: T

Asked: I'd appreciate it if you could say whether N18W has protein stability index at least equal to 3.
Given back: F

Asked: I'd appreciate it if you could say whether G19E has protein stability index at least equal to 3.
Given back: T

Asked: I'd appreciate it if you could say whether H24P has protein stability index at least equal to 3.
Given back: F

Asked: I'd appreciate it if you could say whether R16S has protein stability index at least equal to 3.
Given back: F

Asked: I'd appreciate it if you could say whether G23M has protein stability index at least equal to 3.
Given back: F

Asked: I'd appreciate it if you could say whether S3Q has protein stability index at least equal to 3.
Given back: F

Asked: I'd appreciate it if you could say whether G23Q has protein stability index at least equal to 3.
Given back: F

Asked: I'd appreciate it if you could say whether L17G has protein stability index at least equal to 3.
Given back: T

Asked: I'd appreciate it if you could say whether R2D has protein stability index at least equal to 3.
Given back: T

Asked: I'd appreciate it if you could say whether L5A has protein stability index at least equal to 3.
Given back: T

Asked: I'd appreciate it if you could say whether L17F has protein stability index at least equal to 3.
Given back: F

Asked: I'd appreciate it if you could say whether E6Q has protein stability index at least equal to 3.
Given back: T

Asked: I'd appreciate it if you could say whether V15L has protein stability index at least equal to 3.
Given back: F

Asked: I'd appreciate it if you could say whether L17Q has protein stability index at least equal to 3.
Given back: T

Asked: I'd appreciate it if you could say whether G9V has protein stability index at least equal to 3.
Given back: F

Asked: I'd appreciate it if you could say whether D14I has protein stability index at least equal to 3.
Given back: F

Asked: I'd appreciate it if you could say whether S3H has protein stability index at least equal to 3.
Given back: T

Asked: I'd appreciate it if you could say whether S3L has protein stability index at least equal to 3.
Given back: F

Asked: I'd appreciate it if you could say whether V1D has protein stability index at least equal to 3.
Given back: T

Asked: I'd appreciate it if you could say whether A21D has protein stability index at least equal to 3.
Given back: T

Asked: I'd appreciate it if you could say whether G19R has protein stability index at least equal to 3.
Given back: F

Asked: I'd appreciate it if you could say whether I10Y has protein stability index at least equal to 3.
Given back: F

Asked: I'd appreciate it if you could say whether S3F has protein stability index at least equal to 3.
Given back: F

Asked: I'd appreciate it if you could say whether R2G has protein stability index at least equal to 3.
Given back: T

Asked: I'd appreciate it if you could say whether L5K has protein stability index at least equal to 3.
Given back: T

Asked: I'd appreciate it if you could say whether R2P has protein stability index at least equal to 3.
Given back: T

Asked: I'd appreciate it if you could say whether A8I has protein stability index at least equal to 3.
Given back: F

Asked: I'd appreciate it if you could say whether R4E has protein stability index at least equal to 3.
Given back: T

Asked: I'd appreciate it if you could say whether R16Q has protein stability index at least equal to 3.
Given back: F

Asked: I'd appreciate it if you could say whether E7S has protein stability index at least equal to 3.
Given back: F

Asked: I'd appreciate it if you could say whether V12L has protein stability index at least equal to 3.
Given back: F

Asked: I'd appreciate it if you could say whether E7H has protein stability index at least equal to 3.
Given back: F

Asked: I'd appreciate it if you could say whether H24E has protein stability index at least equal to 3.
Given back: T

Asked: I'd appreciate it if you could say whether N18D has protein stability index at least equal to 3.
Given back: F

Asked: I'd appreciate it if you could say whether V12P has protein stability index at least equal to 3.
Given back: T

Asked: I'd appreciate it if you could say whether V15Y has protein stability index at least equal to 3.
Given back: F

Asked: I'd appreciate it if you could say whether I10A has protein stability index at least equal to 3.
Given back: T

Asked: I'd appreciate it if you could say whether V12A has protein stability index at least equal to 3.
Given back: T

Asked: I'd appreciate it if you could say whether S3N has protein stability index at least equal to 3.
Given back: F

Asked: I'd appreciate it if you could say whether R16F has protein stability index at least equal to 3.
Given back: F

Asked: I'd appreciate it if you could say whether I10F has protein stability index at least equal to 3.
Given back: F

Asked: I'd appreciate it if you could say whether V15A has protein stability index at least equal to 3.
Given back: T

Asked: I'd appreciate it if you could say whether G19D has protein stability index at least equal to 3.
Given back: F

Asked: I'd appreciate it if you could say whether D14Y has protein stability index at least equal to 3.
Given back: F

Asked: I'd appreciate it if you could say whether S20V has protein stability index at least equal to 3.
Given back: F

Asked: I'd appreciate it if you could say whether K11M has protein stability index at least equal to 3.
Given back: F

Asked: I'd appreciate it if you could say whether V12Y has protein stability index at least equal to 3.
Given back: T

Asked: I'd appreciate it if you could say whether D14Q has protein stability index at least equal to 3.
Given back: F

Asked: I'd appreciate it if you could say whether A22F has protein stability index at least equal to 3.
Given back: F

Asked: I'd appreciate it if you could say whether S20N has protein stability index at least equal to 3.
Given back: T

Asked: I'd appreciate it if you could say whether L5W has protein stability index at least equal to 3.
Given back: T

Asked: I'd appreciate it if you could say whether L17N has protein stability index at least equal to 3.
Given back: T

Asked: I'd appreciate it if you could say whether R4N has protein stability index at least equal to 3.
Given back: F

Asked: I'd appreciate it if you could say whether R16Y has protein stability index at least equal to 3.
Given back: F

Asked: I'd appreciate it if you could say whether A21I has protein stability index at least equal to 3.
Given back: F

Asked: I'd appreciate it if you could say whether E6S has protein stability index at least equal to 3.
Given back: F

Asked: I'd appreciate it if you could say whether K11V has protein stability index at least equal to 3.
Given back: F

Asked: I'd appreciate it if you could say whether R2C has protein stability index at least equal to 3.
Given back: F

Asked: I'd appreciate it if you could say whether H13I has protein stability index at least equal to 3.
Given back: F

Source: the supplement of paper PMC10567573
